System: MOLT-4 leukemia
Assay: NCI tumour cell line growth inhibition, 48 h
measuredEndpoint: TGI

> print(dat)
                                   compound    subjectoftest  measuredendpoint  valuemeasured
1  CCCCc1ccc(Nc2nc(Cl)c3ccn(C4CC(Oc5ccc(C)cc5)C(COc5ccc(C)cc5)O4)c3n2)cc1 (configuration not stated)  MOLT-4 leukemia               TGI      > 46.4 µM
2                  C[n+]1c2ccccc2nc2ccccc21  MOLT-4 leukemia               TGI      > 23.5 µM
3           N#CC(C#N)=Cc1ccc(CP(=O)(O)O)cc1  MOLT-4 leukemia               TGI       > 100 µM
4        Nn1c(=O)[nH]c2ncn(Cc3ccccc3)c2c1=O  MOLT-4 leukemia               TGI       > 100 µM
5  CCOC1NC(=O)Oc2cc3ccccc3cc21 (configuration not stated)  MOLT-4 leukemia               TGI       > 100 µM
6    O=C(O)/C(=C\c1ccc(O)cc1)c1cccc2ccccc12  MOLT-4 leukemia               TGI       > 100 µM
7  O=[N+]([O-])/C=C(\CS(=O)(=O)c1ccccc1)c1ccc2c(c1)OCO2  MOLT-4 leukemia               TGI       > 100 µM

* * *

Tested on: CAKI-1 renal
Assay: NCI tumour cell line growth inhibition, 48 h
Each entry below lists one item and its recorded TGI value.
measuredEndpoint: TGI

> print(dat)
                                   compound  subjectoftest  valuemeasured
1     COc1ccc(/C=C2\SC(=Nc3ccccc3)NC2=O)cc1   CAKI-1 renal       > 100 µM
2  COc1ccc(C(=O)CC2=Nc3nnc(CCCCCCCc4nnc5n4C(=O)C(CC(=O)c4ccc(OC)cc4)=N5)n3C2=O)cc1   CAKI-1 renal       > 100 µM
3                  C[n+]1c2ccccc2nc2ccccc21   CAKI-1 renal        6.42 µM
4       CCSc1nc(=S)n(-c2ccccc2)c(C)c1C(C)=O   CAKI-1 renal       > 100 µM
5  COC(=O)[C@]1(c2ccc(N(C)C)cc2OC)C[C@@H]2CCCN(CCc3c1[nH]c1ccccc31)C2   CAKI-1 renal       > 100 µM
6             N/C(=N\Nc1ccc(Cl)cc1)c1cnccn1   CAKI-1 renal       > 100 µM
7  COC(=O)C1CC(OC(C)=O)C=C2C(=O)CCC21 (configuration not stated)   CAKI-1 renal        55.8 µM

* * *

Test system: NCI/ADR-RES ovarian
Assay: NCI tumour cell line growth inhibition, 48 h
Each entry below lists one item and its recorded TGI value.

inputSmiles	TGI
Nc1nc(SCc2ccccc2Cl)cc(C(=O)O)n1	> 100 µM
Cc1ccc(NC(=O)/C(Cc2cc(=O)oc3cc(O)ccc23)=N\NC(C)(C)C)cc1C	> 100 µM
CC(=O)O[C@H]1C(=O)[C@@]2(C)[C@H]([C@H](OC(=O)c3ccccc3)[C@]3(O)C[C@H](OC(=O)[C@H](O)[C@@H](NC(=O)c4ccccc4)c4cccc(N(C)C)c4)C(C)=C1C3(C)C)[C@]1(OC(C)=O)CO[C@@H]1C[C@@H]2O	> 62.5 µM
